tested on: Saccharomyces cerevisiae; experiment: protein stability index of tFT-peptide fusion (C-terminal peptide) (PSI (0-1 scale)); higher = more stable (slower turnover); details: genetic background: wild type; temperature: 30 C
Measured endpoint: protein stability index
Write no unit; give the number alone.

>>> readout_value("MDGAVRRCLVRG")
0.666
>>> readout_value("VVSYFFSNDVLH")
0.752
>>> readout_value("LRRNHREPGYSK")
0.684
>>> readout_value("AWCLLTRWDLLL")
0.609
>>> readout_value("GLACWALLTCNR")
0.726
>>> readout_value("SWMSQFSILLTA")
0.285
>>> readout_value("PSSPALIPCRLV")
0.61
>>> readout_value("THKGAPTCRSAR")
0.672

Lab note: measured protein stability index of GGRGAGRGSVGG was 0.679

Lab note: measured protein stability index of LWGRAVYETFQM was 0.67

Lab note: measured protein stability index of VCLLFRFCCWFW was 0.371

Lab note: measured protein stability index of VAPPIPSKAGHL was 0.753

Lab note: measured protein stability index of PPPVPPRFAVRP was 0.668

Lab note: measured protein stability index of VIDTGAGSILEI was 0.7

----------
system: Saccharomyces cerevisiae; assay: protein stability index of tFT-peptide fusion (C-terminal peptide) (PSI (0-1 scale)); higher = more stable (slower turnover); conditions: genetic background: wild type; temperature: 30 C
Output True for protein stability index not less than 0.7; output False otherwise.

>>> classification("KIKKIVLKRSFD [NMD2 C-terminal 12 aa]")
"False"
>>> classification("QTNSKPAAVSTN [PLN1 C-terminal 12 aa]")
"False"
>>> classification("TRDAPRERSPTR [NPL3 C-terminal 12 aa]")
"False"
>>> classification("VFTRLYSTLWSY [YDR149C C-terminal 12 aa]")
"False"

**Query** Does protein stability index meet or surpass 0.7 for CIAKKVKTYWNK [YIL024C C-terminal 12 aa] ?
**Result** False

**Query** Does protein stability index meet or surpass 0.7 for ILGNYRDIFKQA [RGA2 C-terminal 12 aa] ?
**Result** False

**Query** Does protein stability index meet or surpass 0.7 for KGISIVESTFIS [YDR222W C-terminal 12 aa] ?
**Result** False

**Query** Does protein stability index meet or surpass 0.7 for PFEDKFEIHDER [OPY2 C-terminal 12 aa] ?
**Result** True

**Query** Does protein stability index meet or surpass 0.7 for CTIQKMREKANT [YNL028W C-terminal 12 aa] ?
**Result** True

**Query** Does protein stability index meet or surpass 0.7 for IREFLEEIVDTQ [SUS1 C-terminal 12 aa] ?
**Result** True

**Query** Does protein stability index meet or surpass 0.7 for YSAVGNFFSRKK [YGR035W-A C-terminal 12 aa] ?
**Result** False

----------
system: Saccharomyces cerevisiae; assay: protein stability index of tFT-peptide fusion (C-terminal peptide) (PSI (0-1 scale)); higher = more stable (slower turnover); settings: genetic background: wild type; temperature: 37 C
Output condition met for protein stability index not less than 0.5; output condition not met otherwise.

Solved entries (count: 5):
>>> classification("LLVVFSCFTFMF")
"condition not met"
>>> classification("LPPHLPFPLSAA")
"condition met"
>>> classification("CWDNTLKTMRQM")
"condition met"
>>> classification("FVGVVCILWLVG")
"condition not met"
>>> classification("PSPPPPRPASPS")
"condition met"

**Query** Does protein stability index meet or surpass 0.5 for RRFKKTEIIKNN ?
**Result** condition not met

**Query** Does protein stability index meet or surpass 0.5 for QLGGKVGNCHVV ?
**Result** condition met

**Query** Does protein stability index meet or surpass 0.5 for YYLVKCVYLRTT ?
**Result** condition not met

**Query** Does protein stability index meet or surpass 0.5 for FSPLVCLLFFLF ?
**Result** condition not met

**Query** Does protein stability index meet or surpass 0.5 for CCSRYLSNLCPI ?
**Result** condition met
